# assay.summary: Metabolic (microsomal) stability assay, HLM
# Assay type: in vitro ADME
# condition.summary: human liver microsomes, 1 μM test compound, predicted clearance as percent of liver blood flow
measure: HLM QH (%)

[[record]]
molecule = "C[C@H]1CNCCN1c1nccc(-c2noc3c2CCC[C@@]32CCCc3sc(N)c(C#N)c32)n1 [IIf-1]"
meas_value = 29

[[record]]
molecule = "C[C@H](Oc1ccnc(-c2noc3c2CCC[C@@]32CCCc3sc(N)c(C#N)c32)n1)[C@@H]1CCCN1C [IIb-3]"
meas_value = 64

[[record]]
molecule = "C[C@H](Oc1nccc(-c2nnn3c2CCCC32CCCc3sc(N)c(C#N)c32)n1)[C@@H]1CCCN1C (stereo partly shown) [IVa-1]"
meas_value = 80


###

# assay.summary: Solubility measurement (DMSO solution precipitation method)
# Format: physicochemical
# condition.summary: aqueous buffer, kinetic from dmso stock; McIlvaine buffer pH 6.8, 24 h, ambient temperature; read-out: solubility pH 6.8
measure: solubility at 24 h

[[record]]
compound = "C[C@H]1CN(C2CCOC2)CCCN1c1nccc(-c2onc3c2CCC[C@@]32CCCc3sc(N)c(C#N)c32)n1 (stereo partly shown) [Ig-2]"
meas_value = "< 1 µg/mL"

[[record]]
compound = "C[C@H]1CNCCCN1c1nccc(-c2noc3c2OCCC32CCCc3sc(N)c(C#N)c32)n1 (stereo partly shown) [IIb-7]"
meas_value = "> 100 µg/mL"

[[record]]
compound = "C[C@@H](O)CN1CCCN(c2nccc(-c3onc4c3CCC[C@@]43CCCc4sc(N)c(C#N)c43)n2)[C@@H](C)C1 [Ig-4]"
meas_value = "76 µg/mL"


# input for lookup
[Q] Tell me solubility at 24 h reported for C[C@H](Oc1nccc(-c2noc3c2CCC[C@@]32CCCc3sc(N)c(C#N)c32)n1)[C@@H]1CCCN1C [IIb-6]
[A] > 110 µg/mL

###

# assay.summary: Caco-2 assay
# Format: in vitro ADME
# condition.summary: human, Caco-2, pH 7.4, efflux ratio PappBA/PappAB, read-out: Caco ER
measure: efflux ratio at 90 min, 10 μM

Please review the following examples before continuing.
[[record]]
compound = "C[C@H](Oc1nccc(-c2noc3c2CCC[C@@]32CCCc3sc(N)c(C#N)c32)n1)[C@@H]1CCCN1C"
meas_value = 1.3

[[record]]
compound = "C[C@H](Oc1nccc(-c2onc3c2CCC[C@@]32CCCc3sc(N)c(C#N)c32)n1)[C@@H]1CCCN1C"
meas_value = 1.3


I. C[C@H]1CNCCCN1c1nccc(-c2noc3c2CCC[C@@]32CCCc3sc(N)c(C#N)c32)n1 (single isomer, unassigned)
II. C[C@H]1CNCCCN1c1nccc(-c2onc3c2CCC[C@@]32CCCc3sc(N)c(C#N)c32)n1
III. C[C@H](Oc1ccnc(-c2noc3c2CCC[C@@]32CCCc3sc(N)c(C#N)c32)n1)[C@@H]1CCCN1C
IV. C[C@H](Oc1nccc(-c2onc3c2CCC[C@@]32CCCc3sc(N)c(C#N)c32)n1)[C@@H]1C[C@@H](F)CN1C
[Q] List these items ordered by efflux ratio at 90 min, 10 μM, big to small. // respond by listing labels in the order requested
[A] II, III, I, IV
(II: 3.2, III: 2, I: 1.2, IV: 0.6)
